test system: PANC-1; assay: SRB colorimetric assay of cell growth and viability, PANC-1; assay type: cell-based, human; conditions: 48 hours exposure; read-out: LC50 PANC-1
Where a SMILES comes first, the peptide text is derived from it. Bridges are numbered along the chain shown (N, C = ends). [ ]: non-standard residue; d: D form. The star is where a group is joined. d(aIle) = CC[C@H](C)[C@@H](N)C(=O)O; d(aThr) = C[C@@H](O)[C@@H](N)C(=O)O; Hexanoyl(5-Me) = CC(C)CCCC(=O)*; Orn = NCCC[C@H](N)C(=O)O; Dhb = C/C=C(\N)C(=O)O
The following compounds are shown together with reported CC50 values.

// below: answered compounds
COMPOUND: C/C=C1\NC(=O)[C@H](Cc2ccccc2)NC(=O)[C@@H](C(C)C)NC(=O)[C@@H]([C@@H](C)CC)NC(=O)[C@H](NC(=O)[C@H](NC(=O)[C@H](CCCN)NC(=O)[C@H]2CCCN2C(=O)[C@H](NC(=O)[C@@H](NC(=O)[C@@H](NC(=O)[C@H](NC(=O)CC[C@H](C)CC)C(C)C)[C@@H](C)O)C(C)C)C(C)C)[C@@H](C)CC)[C@@H](C)OC(=O)[C@H](C(C)C)NC1=O [Compound 16, [(4R)-MeHex^14]-KF]
OBSERVABLE: CC50
RECORDED_VALUE: 4.24 µM

COMPOUND: C/C=C1\NC(=O)[C@H](Cc2ccccc2)NC(=O)[C@@H](C(C)C)NC(=O)[C@@H]([C@@H](C)CC)NC(=O)[C@H](NC(=O)[C@H](NC(=O)[C@H](CCCN)NC(=O)[C@H]2CCCN2C(=O)[C@H](NC(=O)[C@H](CCC(=O)O)NC(=O)[C@@H](NC(=O)[C@H](NC(=O)CCCC(C)C)C(C)C)[C@@H](C)O)C(C)C)[C@@H](C)CC)[C@@H](C)OC(=O)[C@H](C(C)C)NC1=O [Compound 51, [Glu^11]-KF] ({Hexanoyl(5-Me)}-[dV]TE[dV][dP][Orn][d(aIle)][d(aThr)][d(aIle)][dV]F[Dhb]V; ester 8-C)
OBSERVABLE: CC50
RECORDED_VALUE: 6.63 µM

COMPOUND: C/C=C1\NC(=O)[C@H](Cc2ccccc2)NC(=O)[C@@H](C(C)C)NC(=O)[C@@H]([C@@H](C)CC)NC(=O)[C@H](NC(=O)[C@H](NC(=O)[C@H](CCCN)NC(=O)[C@H]2CCCN2C(=O)[C@H](NC(=O)[C@@H](NC(=O)[C@H](CC(C)C)NC(=O)CCCC(C)C)C(C)C)C(C)C)[C@@H](C)CC)[C@@H](C)OC(=O)[C@H](C(C)C)NC1=O [Compound 54, [Leu^12, noD-Val^13]-KF] ({Hexanoyl(5-Me)}-LV[dV][dP][Orn][d(aIle)][d(aThr)][d(aIle)][dV]F[Dhb]V; ester 7-C)
OBSERVABLE: CC50
RECORDED_VALUE: 4.68 µM

*Q* Could you share what CC50 was measured for C/C=C1\NC(=O)[C@H](Cc2ccccc2)NC(=O)[C@@H](C(C)C)NC(=O)[C@@H]([C@@H](C)CC)NC(=O)[C@H](NC(=O)[C@H](NC(=O)[C@H](CCCN)NC(=O)[C@H]2CCCN2C(=O)[C@H](NC(=O)[C@@H](NC(=O)[C@@H](NC(=O)[C@H](NC(=O)CCCC(C)C)C(C)C)[C@@H](C)O)C(C)C)C(C)C)[C@@H](C)CC)COC(=O)[C@H](C(C)C)NC1=O [Compound 3, [D-Ser^6]-KF] ({Hexanoyl(5-Me)}-[dV]TV[dV][dP][Orn][d(aIle)][dS][d(aIle)][dV]F[Dhb]V; ester 8-C) , tested on PANC-1?
*A* ≥ 6.83 µM

*Q* Could you share what CC50 was measured for C/C=C1\NC(=O)[C@H](Cc2ccccc2)NC(=O)[C@@H](C(C)C)NC(=O)[C@@H]([C@@H](C)CC)NC(=O)[C@H](NC(=O)[C@H](NC(=O)[C@H](CCCN)NC(=O)[C@H]2CCCN2C(=O)[C@H](NC(=O)[C@@H](NC(=O)[C@H](NC(=O)[C@H](NC(=O)CCCC(C)C)C(C)C)[C@H](C)O)C(C)C)C(C)C)[C@@H](C)CC)[C@@H](C)OC(=O)[C@H](C(C)C)NC1=O [Compound 7, [D-Thr^12]-KF] , tested on PANC-1?
*A* ≥ 6.77 µM

*Q* Could you share what CC50 was measured for C/C=C1\NC(=O)[C@H](Cc2ccccc2)NC(=O)[C@@H](C(C)C)NC(=O)[C@@H]([C@@H](C)CC)NC(=O)[C@H](NC(=O)[C@H](NC(=O)[C@H](CCCN)NC(=O)[C@H]2CCCN2C(=O)[C@H](NC(=O)[C@@H](NC(=O)[C@@H](NC(=O)[C@H](NC(=O)CCCCCCCCCC)C(C)C)[C@@H](C)O)C(C)C)C(C)C)[C@@H](C)CC)[C@@H](C)OC(=O)[C@H](C(C)C)NC1=O [Compound 15, [Und^14]-KF] , tested on PANC-1?
*A* 4.2 µM

*Q* Could you share what CC50 was measured for C/C=C1\NC(=O)[C@H](Cc2ccccc2)NC(=O)[C@@H](C(C)C)NC(=O)[C@@H]([C@@H](C)CC)NC(=O)[C@H](NC(=O)[C@H](NC(=O)[C@H](CCCCN)NC(=O)[C@H]2CCCN2C(=O)[C@H](NC(=O)[C@@H](NC(=O)[C@@H](NC(=O)[C@H](NC(=O)CC[C@@H](C)CC)C(C)C)[C@@H](C)O)C(C)C)C(C)C)[C@@H](C)CC)[C@@H](C)OC(=O)[C@H](C(C)C)NC1=O [Compound 30, [Lys^8, (4S)-MeHex^14]-KF] , tested on PANC-1?
*A* 6.7 µM

*Q* Could you share what CC50 was measured for C/C=C1\NC(=O)[C@H](Cc2ccccc2)NC(=O)[C@@H](C(C)C)NC(=O)[C@@H]([C@@H](C)CC)NC(=O)[C@H](NC(=O)[C@H](NC(=O)[C@H](CCCN)NC(=O)[C@H]2CCCN2C(=O)[C@H](NC(=O)[C@@H](NC(=O)[C@@H](NC(=O)[C@H](NC(=O)CCCCCCC)C(C)C)[C@@H](C)O)C(C)C)C(C)C)[C@@H](C)CC)[C@@H](C)OC(=O)[C@H](C(C)C)NC1=O [Compound 18, [Oct^14]-KF] , tested on PANC-1?
*A* 6.03 µM

*Q* Could you share what CC50 was measured for C/C=C1\NC(=O)[C@H](Cc2ccccc2)NC(=O)[C@@H](C(C)C)NC(=O)[C@@H]([C@@H](C)CC)NC(=O)[C@H](NC(=O)[C@H](NC(=O)[C@H](CCCN)NC(=O)[C@H]2CCCN2C(=O)[C@H](NC(=O)[C@@H](NC(=O)[C@@H](NC(=O)[C@@H](CCC(N)=O)NC(=O)CCCC(C)C)[C@@H](C)O)C(C)C)C(C)C)[C@@H](C)CC)[C@@H](C)OC(=O)[C@H](C(C)C)NC1=O [Compound 40, [D-Gln^13]-KF] , tested on PANC-1?
*A* 0.863 µM
